// data source = paper PMC8097893

# Tested on: PC-3 cells
# experimental details: MTT cytotoxicity assay on PC-3 cells
# Type: cell-based, human
# applied conditions: Homo sapiens; PC-3, MTT, 24 h; read-out: IC50 (µM) ± SD (PC-3) 24 h
experimental endpoint: IC50

# query: IC50 of entry CCc1nc(N2CCN(C)CC2)nc2c1Nc1ccccc1S2 [4-EMPB]
107 µM

###

Form field: IC50 (one value per entry).
# Tested on: PC-3 cells
# experimental details: MTT cytotoxicity assay on PC-3 cells
# Type: cell-based, human
# applied conditions: PC-3, MTT, 24 h; read-out: IC50 (µM) ± SD (PC-3) 24 h
Field: numeric (µM). Do not append units.

Below, 2 compounds whose answers are already recorded.
# query: IC50 of entry CCCc1nc(N2CCN(C)CC2)nc2c1Sc1ccccc1N2
122

Here is the next compound: N.N.[Cl][Pt][Cl] [Cisplatin, cisplatin, reference compound]
62.3

Next up:
# query: IC50 of entry Cc1nc(N2CCN(C)CC2)nc2c1Sc1ccccc1N2
101
